Source: patent US9510598B2

# Log P per record follows
experimental-setup: Table 2, formula (II); method [a]: pH 2.7, 0.1% formic acid in water / acetonitrile gradient

Consider the following illustrative entries.
INSERT INTO assay_data (compound, measured_result) VALUES
  ('COC1(C(=O)O)CC(c2cc(C)c3ncc(Br)cc3c2)=NO1 (stereo not drawn)', '2.42[a]'),
  ('COC(=O)C1(c2ccccc2)CC(c2ccc3ncc(Br)cc3c2)=NO1 (racemic)', '2.69[a]');

Entry O=C(O)C1(CBr)CC(c2ccc3ncc(Br)cc3c2)=NO1 (racemic) , Log P reported as 2.19[a]

Entry COc1c(C2=NOC(C)(C(=O)O)C2)cc2cccnc2c1F (racemic) , Log P reported as 1.39[a]

Entry CCOC(=O)C1(OC)CC(c2cc(Cl)c3ncc(Br)cc3c2)=NO1 (stereo not drawn) , Log P reported as 3.69[a]

Entry COC1(C(=O)O)CC(c2ccc3ncc(Br)cc3c2)=NO1 (racemic) , Log P reported as 1.73[a]

Entry C#Cc1cnc2ccc(C3=NOC(OC)(C(=O)OCCCC(C)NC(C)CCCOC(=O)C4(OC)CC(c5ccc6ncc(C#C)cc6c5)=NO4)C3)cc2c1 (stereo not drawn) , Log P reported as 2.20[a]

Entry COC(=O)C1(C(F)(F)F)CC(c2ccc3ncc(Br)cc3c2)=NO1 (racemic) , Log P reported as 3.4[a]

Entry COC(=O)CC1(C(=O)O)CC(c2ccc3ncc(Br)cc3c2)=NO1 (stereo not drawn) , Log P reported as 1.98[a]

###

Assay type: physicochemical
experimental-setup: reversed phase HPLC column; HPLC reversed phase, pH 2.7, 0.1% formic acid in water / acetonitrile, linear gradient 10% to 95% acetonitrile; calibration with alkan-2-ones; read-out: log P (HCOOH)
# chromatographic logP per record follows
Respond numerically, and do not add a unit to the figure.

Entry O=Cc1cc2cc(Br)cnc2c(F)c1F , chromatographic logP reported as 2.71

###

# log P per record follows
Type: physicochemical
experimental-setup: HPLC on reversed phase columns, method [a]: pH 2.7, 0.1% formic acid in water / acetonitrile, linear gradient 10% to 95% acetonitrile

INSERT INTO results (compound, measured_result) VALUES
  ('CCn1cc(CNC(=O)C2(C)CC(c3ccc4ncc(Br)cc4c3)=NO2)c(OC)n1 (centres unmarked)', '2.63[a]'),
  ('C#Cc1cnc2ccc(C3=NOC(C)(C(=O)NC(C)c4cccc5ccccc45)C3)cc2c1 (centres unmarked)', '3.85[a]'),
  ('COc1ccc(CNC(=O)C2(C)CC(c3ccc4ncc(Br)cc4c3)=NO2)cn1 (centres unmarked)', '2.66[a]');

Entry CC1CCCC1(C#N)NC(=O)C1(C)CC(c2ccc3ncc(Br)cc3c2)=NO1 (centres unmarked) , log P reported as 3.27[a]

Entry C#Cc1cnc2ccc(C3=NOC(C)(C(=O)NC4COC4)C3)cc2c1 (centres unmarked) , log P reported as 1.75^[a]

Entry C#Cc1cnc2ccc(C3=NOC(C)(C(=O)NCc4ccncn4)C3)cc2c1 (centres unmarked) , log P reported as 1.78[a]

Entry CCn1cc(CNC(=O)C2(OC)CC(c3cc(C)c4ncc(Br)cc4c3)=NO2)c(C)n1 (centres unmarked) , log P reported as 2.96[a]

Entry C#Cc1cnc2c(Cl)cc(C3=NOC(C)(C(=O)NCCCOCC)C3)cc2c1 (racemic) , log P reported as 2.94[a]

###

# Log P per record follows
experimental-setup: Table 2, formula (II); method [a]: pH 2.7, 0.1% formic acid in water / acetonitrile gradient

INSERT INTO measurements (compound, observation_type, measured_result) VALUES
  ('CC1(C(=O)O)CC(c2ccc3nc(C#N)c(I)cc3c2)=NO1 (centres unmarked)', 'Log P', '2.24[a]'),
  ('COC(=O)C1(C)CC(c2ccc3ncc(I)cc3c2)=NO1 (centres unmarked)', 'Log P', '2.71[a]'),
  ('COC(=O)C12OCCCC1C(c1ccc3ncc(Br)cc3c1)=NO2 (centres unmarked)', 'Log P', '2.80[a]'),
  ('C#Cc1cnc2ccc(C3=NOC(CC)(C(=O)O)C3)cc2c1 (centres unmarked)', 'Log P', '2.05[a]'),
  ('CCC1(C(=O)O)CC(c2ccc3ncc(Br)cc3c2)=NO1 (centres unmarked)', 'Log P', '2.30[a]'),
  ('C#Cc1cnc2c(C)cc(C3=NOC(C)(C(=O)O)C3)cc2c1 (centres unmarked)', 'Log P', '2.30[a]'),
  ('COC(=O)C1(CO)CC(c2ccc3ncc(Br)cc3c2)=NO1 (centres unmarked)', 'Log P', '1.99[a]'),
  ('C[Si](C)(C)CC1(C(=O)O)CC(c2ccc3ncc(Br)cc3c2)=NO1 (centres unmarked)', 'Log P', '3.42[a]');

Entry CC1(C(=O)O)CC(c2ccc3nc(C#N)c(Br)cc3c2)=NO1 (centres unmarked) , Log P reported as 2.23[a]

Entry CC1(C(=O)O)CC(c2cc3cc(Br)cnc3c(F)c2F)=NO1 (racemic) , Log P reported as 2.25[a]

Entry COC(=O)C1(C)CC(c2cc3cc(Br)cnc3cc2F)=NO1 (centres unmarked) , Log P reported as 2.94[a]

Entry COC(=O)C1(SC)CC(c2ccc3ncc(Br)cc3c2)=NO1 (centres unmarked) , Log P reported as 3.05[a]

Entry COC(=O)C1(C)CC(c2ccc3nc(C#N)c(I)cc3c2)=NO1 (centres unmarked) , Log P reported as 3.02[a]

Entry COC(=O)C1(C)CC(c2ccc3nc(O)c(Br)cc3c2)=NO1 (centres unmarked) , Log P reported as 1.74[a]

Entry COC(=O)C1(OC)CC(c2ccc3ncc(Br)cc3c2)=NO1 (centres unmarked) , Log P reported as 3.29[a]

Entry COC(=O)C1(C(F)(F)F)CC(c2cc3cc(Br)cnc3c(F)c2F)=NO1 (racemic) , Log P reported as 3.72[a]

###

Format: physicochemical
experimental-setup: HPLC on reversed phase columns, method [a]: pH 2.7, 0.1% formic acid in water / acetonitrile, linear gradient 10% to 95% acetonitrile
# log P per record follows

INSERT INTO assay_data (compound, observation_type, measured_result) VALUES
  ('C#Cc1cnc2ccc(C3=NOC(C)(C(=O)NCc4ccsc4)C3)cc2c1 (centres unmarked) [compound 515]', 'log P', '2.71[a]');

Entry C#Cc1cnc2ccc(C3=NOC(C)(C(=O)NCC4CCCCC4)C3)cc2c1 (centres unmarked) [compound 246] , log P reported as 3.55^[a]

Entry CCCSc1cnc2ccc(C3=NOC(C)(C(=O)NCc4cn(CC)nc4C)C3)cc2c1 (centres unmarked) [compound 264] , log P reported as 2.76^[a]

Entry Cc1cnc(CNC(=O)C2(C)CC(c3cc(C)c4ncc(Br)cc4c3)=NO2)cn1 (centres unmarked) [compound 537] , log P reported as 2.84[a]

Entry CC1(C(=O)NCc2ncccn2)CC(c2ccc3ncc(Br)cc3c2)=NO1 (centres unmarked) [compound 661] , log P reported as 2.13[a]

Entry C#Cc1cnc2c(C)cc(C3=NOC(C)(C(=O)NCC4COC(C)(C)O4)C3)cc2c1 (centres unmarked) [compound 536] , log P reported as 2.98[a]

Entry C#CCCNC(=O)C1(C)CC(c2ccc3ncc(C#C)cc3c2)=NO1 (racemic) [compound 355] , log P reported as 2.25[a]

Entry CCCCn1cc(CNC(=O)C2(C)CC(c3ccc4ncc(Br)cc4c3)=NO2)c(C)n1 (centres unmarked) [compound 657] , log P reported as 2.96[a]

###

Format: physicochemical
experimental-setup: HPLC on reversed phase columns, method [a]: pH 2.7, 0.1% formic acid in water / acetonitrile, linear gradient 10% to 95% acetonitrile
# log P per record follows

INSERT INTO measurements (compound, measured_result) VALUES
  ('C#Cc1cnc2ccc(C3=NOC(C)(C(=O)NC(C)c4ccccc4)C3)cc2c1 (centres unmarked) [compound 350]', '3.06[a]'),
  ('C#Cc1cnc2ccc(C3=NOC(C(=O)NCC4COC(C)(C)O4)(C(F)F)C3)cc2c1 (centres unmarked) [compound 614]', '2.64[a]'),
  ('C#Cc1cnc2ccc(C3=NOC(C)(C(=O)NCc4cnn(CC(F)F)c4)C3)cc2c1 (centres unmarked) [compound 647]', '2.17[a]');

Entry CC1(C(=O)NC2CCOCC2)CC(c2ccc3ncc(Br)cc3c2)=NO1 (centres unmarked) [compound 307] , log P reported as 2.27[a]

Entry C#Cc1cnc2ccc(C3=NOC(C)(C(=O)NCc4cccc(C(C)C)n4)C3)cc2c1 (centres unmarked) [compound 660] , log P reported as 2.07[a]

Entry CC(NC(=O)C1(C)CC(c2ccc3ncc(Br)cc3c2)=NO1)C1CCOC1 (centres unmarked) [compound 291] , log P reported as 2.46[a]

Entry COCC(COC)NC(=O)C1(C)CC(c2ccc3ncc(Br)cc3c2)=NO1 (centres unmarked) [compound 305] , log P reported as 2.56[a]

Entry C#Cc1cnc2c(Cl)cc(C3=NOC(OC)(C(=O)NCc4cnc(C)cn4)C3)cc2c1 (centres unmarked) [compound 591] , log P reported as 2.37[a]
